Below is a list of entries, each paired with its recorded Relative Binding Affinity KDR Receptor value.
TARGET_SYSTEM: KDR receptor (Homo sapiens, UniProt P35968)
Sequence (P35968 20-327 limits assumed): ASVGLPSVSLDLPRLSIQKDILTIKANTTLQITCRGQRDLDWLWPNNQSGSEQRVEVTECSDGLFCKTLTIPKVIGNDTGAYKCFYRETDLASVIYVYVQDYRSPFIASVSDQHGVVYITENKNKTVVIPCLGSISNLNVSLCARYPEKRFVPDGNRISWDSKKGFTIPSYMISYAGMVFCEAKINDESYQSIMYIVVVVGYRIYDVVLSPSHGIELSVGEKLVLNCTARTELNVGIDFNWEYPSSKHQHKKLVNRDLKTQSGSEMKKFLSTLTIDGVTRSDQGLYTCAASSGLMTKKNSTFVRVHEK
ASSAY_NAME: KDR receptor binding ELISA (inhibition of biotinylated native VEGF (8-109) binding)
CONDITION_SET: second figure of the cell, ratio to native VEGF (8-109)

{"MOLECULE": "LK-VRB-24s: VEGF (1-109) variant, D63S/G65M/M18E/Y21L/Q22R/Y25S (protein) APMAEGGGQNHHEVVKFEDVLRRSSCHPIETLVDIFQEYPDEIEYIFKPSCVPLMRCGGCCNSEMLECVPTEESNITMQIMRIKPHQGQHIGEMSFLQHNKCECRPKKD", "Relative Binding Affinity KDR Receptor": "10 nM/10"}

In: Please look at this molecule and report its Relative Binding Affinity KDR Receptor: LK-VRB-15s: VEGF (1-109) variant, Y21L/Y25S/D63S/G65M/L66R (protein) APMAEGGGQNHHEVVKFMDVLQRSSCHPIETLVDIFQEYPDEIEYIFKPSCVPLMRCGGCCNSEMRECVPTEESNITMQIMRIKPHQGQHIGEMSFLQHNKCECRPKKD
Out: 2 nM/2

In: Please look at this molecule and report its Relative Binding Affinity KDR Receptor: LK-VRB-22s: VEGF (1-109) variant, GG5M/M18E/Y21L/Q22R/Y25S as printed (protein) APMAEGGGQNHHEVVKFEDVLRRSSCHPIETLVDIFQEYPDEIEYIFKPSCVPLMRCGGCCNDEMLECVPTEESNITMQIMRIKPHQGQHIGEMSFLQHNKCECRPKKD
Out: 4 nM/4

In: Please look at this molecule and report its Relative Binding Affinity KDR Receptor: LK-VRB-23s: VEGF (1-109) variant, L66R/M185/Y21L/Q22R/Y25S as printed (protein) APMAEGGGQNHHEVVKFEDVLRRSSCHPIETLVDIFQEYPDEIEYIFKPSCVPLMRCGGCCNDEGRECVPTEESNITMQIMRIKPHQGQHIGEMSFLQHNKCECRPKKD
Out: 11 nM/11
